READOUT TYPE: melting point

Worked examples follow.
> print(dat)
                                   compound   readout.type  reading
1  CSC(=S)OCc1cn(-c2ccc(N3CCOCC3)c(F)c2)nn1  melting point   118 °C
2  CCCO[C@@H]1C[C@@H](C(=O)NC)N(S(=O)(=O)c2ccc(Cl)c(CBr)c2Cl)C1  melting point    62 °C

## Task Given OC(CCn1cccn1)c1ccc(OCc2ccccc2)cc1 (centres undefined) , state its recorded melting point.
## Result 80 to 85 °C

## Task Given CC(=O)NC(COC1CCN(c2nc3ccc(OCC4CC4)cc3o2)CC1)C(F)(F)F (centres undefined) , state its recorded melting point.
## Result 126 to 127 °C

## Task Given CC(C)C(c1cncnc1C(F)(F)F)N(C)C(=O)N(C)Cc1ccc(Cl)cc1 (centres undefined) , state its recorded melting point.
## Result 95 to 98 °C

## Task Given COC(=O)c1c(-c2cccs2)c2cc(OCc3ccccc3)ccc2c(=O)n1CC(C)C , state its recorded melting point.
## Result 143 to 144 °C

## Task Given CN(C)C(=O)c1ccc(CNC(=O)C2Cc3ccccc3N2S(=O)(=O)c2ccc(-c3ccccc3C(F)(F)F)cc2)cc1 (centres undefined) , state its recorded melting point.
## Result 105 to 106 °C

## Task Given N#Cc1cnc2cc3ccccc3cc2c1Nc1ccc(Oc2ccccc2)cc1 , state its recorded melting point.
## Result 250 to 251 °C

## Task Given CS(=O)(=O)Nc1cccc(Nc2nc(NCc3cccc(C#N)c3)c3nc[nH]c3n2)c1 , state its recorded melting point.
## Result 128 to 131 °C

* * *

Reported melting point values follow for various compounds

Worked examples follow.
> print(dat)
                                   compound   readout.type        reading
1       CCOC(=O)N1CCCN(c2nc3ccccc3[nH]2)CC1  melting point  161 to 162 °C
2  COc1ccc(C(C)(c2ccc(OC)cc2)c2ccc(N(c3ccc(C)cc3)c3ccc(C)cc3)cc2)cc1  melting point  147 to 148 °C
3  C#Cc1cnc(C2=NC(C)(C(C)C)C(=O)N2)c(C(=O)O)c1 (stereo unspecified)  melting point  190 to 195 °C
4  CCOC(=O)CNC(=O)[C@H](CSCc1ccccc1)NC(=O)OCc1ccccc1  melting point    93 to 95 °C

## Task Given O=C(c1cccc(O)c1)c1nn(C2CCCC2)c2c(C(F)(F)F)cccc12 , state its recorded melting point.
## Result 152 °C

## Task Given COC(=O)c1ccc2ccc(C(C)=O)cc2c1 , state its recorded melting point.
## Result 103 to 105 °C

## Task Given O=[N+]([O-])c1ccc2nc(CS(=O)c3ccccn3)[nH]c2c1 (stereo unspecified) , state its recorded melting point.
## Result 207 to 209 °C

## Task Given O=C(CCl)Nc1nc(-c2ccccc2)cs1 , state its recorded melting point.
## Result 179 to 181 °C

## Task Given N#CCCc1ccc(OCC2(O)CN3CCC2CC3)cc1 (stereo unspecified) , state its recorded melting point.
## Result 92 to 94 °C

## Task Given NC(=O)C1CCc2c(C(=O)c3ccc(Cl)cc3)cccc21 (stereo unspecified) , state its recorded melting point.
## Result 159 to 161 °C

## Task Given O=C(CCCC(=O)N1CCC(c2ccc(Cl)cc2)CC1)c1ccc2c(c1)CCNCC2 , state its recorded melting point.
## Result 112 to 113 °C

## Task Given CCOC(=O)c1c[nH]nc1-c1cccs1 , state its recorded melting point.
## Result 123 to 124 °C
